Tested on: Plasmodium berghei
PROTOCOL_DESCRIPTION: Screen against P. berghei liver stage (PbLuc), transformed with Luciferase, at 10uM
Format: functional, HepG2
TEST_PARAMETERS: tested at 10 uM
Hit rate of the full screen: of about 69,000 compounds, about 8,600 (12%) showed an effect of 50% or more. What follows is part of a selection rich in strong results, with near analogues and random picks from the rest.
Just a reminder that ties go to not satisfied: only INHIBITION strictly below 20% counts as satisfied.

[[record]]
molecule = "Cc1ccnc(NC(=O)c2cnc(C3CCCNC3)cn2)c1 (stereo unspecified)"
class_assignment = "not satisfied"

[[record]]
molecule = "COCC(=O)N1CCC2(CCN(Cc3ccc(C)cc3)CC2)CC1"
class_assignment = "satisfied"

[[record]]
molecule = "CS(=O)(=O)NCc1cnc2n1CCN(Cc1cccnc1)CC2"
class_assignment = "satisfied"

[[record]]
molecule = "CCn1cc(CN2CCCN(C(=O)CCc3cccs3)CC2)cn1"
class_assignment = "satisfied"

[[record]]
molecule = "Cc1cccc(OCC(=O)NS(=O)(=O)Cc2ccccc2)c1"
class_assignment = "not satisfied"


Continue with the next molecule.
Take the molecule `Cc1ccc(OCC(=O)NS(=O)(=O)Cc2ccccc2)cc1` and say whether its INHIBITION is less than 20%.
not satisfied
